Each entry below lists one item and its recorded recombinant barcode read abundance (log10) value.
experiment: recombinant barcode read abundance after kanamycin selection (control-corrected) (log10(CPM+1)); higher = more efficient recombination; sequences stand for … in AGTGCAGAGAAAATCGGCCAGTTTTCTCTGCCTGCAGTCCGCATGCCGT…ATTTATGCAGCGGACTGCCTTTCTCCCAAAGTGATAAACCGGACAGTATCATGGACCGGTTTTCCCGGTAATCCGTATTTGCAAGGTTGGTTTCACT; site = the 11-nt target
// no unit, no text: just the number

May I ask what recombinant barcode read abundance (log10) has been recorded for AGGCGGGCTTGGGTTCTAACCTGTTGCGGAG [AGGCGGGCTCC_LTGcore_CT_RTGcore_CT] (site AGGCGGGCTCC) (LTG core: CT, RTG core: CT) ?
1.66

###

test: recombinant barcode read abundance after kanamycin selection (control-corrected) (log10(CPM+1)); higher = more efficient recombination; sequences stand for … in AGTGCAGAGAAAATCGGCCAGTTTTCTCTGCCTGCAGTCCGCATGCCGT…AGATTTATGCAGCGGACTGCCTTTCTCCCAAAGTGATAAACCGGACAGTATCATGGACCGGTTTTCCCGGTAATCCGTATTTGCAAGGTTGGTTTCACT; site = the 11-nt target
Each entry below lists one item and its recorded recombinant barcode read abundance (log10) value.

Study these solved cases before continuing.
AGGTCCTCTTGGGTTCTAACCTGTTGCTT (site AGGTCCTCTAA): 1.13
ACCTGTCCTTGGGTTCTAACCTGTTGCCT (site ACCTGTCCTAG): 0.986
GTTAACTCTTGGGTTCTAACCTGTTGCCT (site GTGAACTCTAG): 0.34
TTACTCTCTTGGGTTCTAACCTGTTGCCT (site TGACTCTCTAG): 0.137
TGAGTCCCTTGGGTTCTAACCTGTTGCTA (site TGAGTCCCTTA): 2.27

May I ask what recombinant barcode read abundance (log10) has been recorded for GGTCCCGCTTGGGTTCTAACCTGTTGCCA (site GGGCCCGCTTA) ?
0.485

Follow-up item: AGTACCTCTTGGGTTCTAACCTGTTGCCT (site ATTACCTCTAG)
0.0826

Follow-up item: TCTTGTCCTTGGGTTCTAACCTGTTGCGC (site TCTTGTCCTTC)
0.0581

Follow-up item: TCACGGTCTTGGGTTCTAACCTGTTGCCT (site TCACGGTCTAG)
0.598

Follow-up item: ACTAGGCCTTGGGTTCTAACCTGTTGCGG (site ACTAGGCCTCC)
2.2

###

test: recombinant barcode read abundance after kanamycin selection (control-corrected) (log10(CPM+1)); higher = more efficient recombination; sequences stand for … in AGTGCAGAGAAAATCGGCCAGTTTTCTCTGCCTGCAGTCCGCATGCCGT…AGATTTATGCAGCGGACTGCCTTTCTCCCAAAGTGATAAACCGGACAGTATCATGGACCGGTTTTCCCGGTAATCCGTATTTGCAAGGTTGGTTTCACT; site = the 11-nt target
Assay Metric: recombinant barcode read abundance (log10)
// no unit, no text: just the number

TCAGAGGCTTGGGTTCTAACCTGTTGCTG (site TCCGAGGCTCA): 0.118
TCGTGAGCTTGGGTTCTAACCTGTTGCTG (site TCGTGAGCTCA): 0.301

May I ask what recombinant barcode read abundance (log10) has been recorded for CTCTAACCTTGGGTTCTAACCTGTTGCGT (site CTCTACCCTAC) ?
0.0519

Follow-up item: CCTACCGCTTGGGTTCTAACCTGTTGCTT (site CCTACCGCTAA)
0.424

###

experiment: recombinant UMI read abundance after kanamycin selection (control-corrected) (log10(CPM+1)); higher = more efficient recombination; extreme values may be limits of the assay; sequences stand for … in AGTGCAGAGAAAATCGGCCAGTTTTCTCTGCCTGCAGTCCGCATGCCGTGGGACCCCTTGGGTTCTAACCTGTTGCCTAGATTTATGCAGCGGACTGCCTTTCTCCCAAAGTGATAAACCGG…AGGTTGGTTTCACT; site = the 11-nt donor
Use 0.009 as the dividing line for recombinant UMI read abundance (log10), with the line itself on the label 1 side and lower values as label 0.

Here's what some known entries look like.
ACAGGAACATGGACCGGTTTTCCCGGTAATCCGTATTTGTC (site ACACGAACTGA): label 1
CGGAGTCCATGGACCGGTTTTCCCGGTAATCCGTATTTGTT (site CGGAGTCCTAA): label 1
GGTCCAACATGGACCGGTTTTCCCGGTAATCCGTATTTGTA (site GTTCCAACTTA): label 1
AATGATGCATGGACCGGTTTTCCCGGTAATCCGTATTTGGA (site AATCATGCTTC): label 1
TCCAACGCATGGACCGGTTTTCCCGGTAATCCGTATTTGCG (site TCCAGCGCTCG): label 0
CAAGTAGCATGGACCGGTTTTCCCGGTAATCCGTATTTGCT (site CAAGAAGCTAG): label 0
AAACACGCATGGACCGGTTTTCCCGGTAATCCGTATTTGGG (site AATCACGCTCC): label 1
TAATTGGCATGGACCGGTTTTCCCGGTAATCCGTATTTGTG (site TAATTGGCTCA): label 1
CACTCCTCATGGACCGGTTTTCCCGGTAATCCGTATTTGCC (site CACTCCTCTTG): label 1
TAAATGACATGGACCGGTTTTCCCGGTAATCCGTATTTGGA (site TAAATGACTTC): label 1

Item GCCGGTCCATGGACCGGTTTTCCCGGTAATCCGTATTTGCA (site TCCGGTCCTTG) with recombinant UMI read abundance (log10) of 0.009 or above?
label 0

Follow-up item: TAGCTTTCATGGACCGGTTTTCCCGGTAATCCGTATTTGGT (site TAGCATTCTAC)
label 1

Follow-up item: GTTACGTCATGGACCGGTTTTCCCGGTAATCCGTATTTGTT (site GTTACGTCTAA)
label 1

Follow-up item: CGATCCACATGGACCGGTTTTCCCGGTAATCCGTATTTGTT (site CGATCTACTAA)
label 0

Follow-up item: GGTCCAACATGGACCGGTTTTCCCGGTAATCCGTATTTGTG (site GGTCCAACTCA)
label 0

###

test: recombinant UMI read abundance after kanamycin selection (control-corrected) (log10(CPM+1)); higher = more efficient recombination; extreme values may be limits of the assay; sequences stand for … in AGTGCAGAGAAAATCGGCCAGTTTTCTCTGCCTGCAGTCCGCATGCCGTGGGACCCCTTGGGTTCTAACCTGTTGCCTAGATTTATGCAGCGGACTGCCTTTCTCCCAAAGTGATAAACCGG…AGGTTGGTTTCACT; site = the 11-nt donor
Each entry below lists one item and its recorded recombinant UMI read abundance (log10) value.
// no unit, no text: just the number

Study these solved cases before continuing.
CCGGTAGCATGGACCGGTTTTCCCGGTAATCCGTATTTGTG (site CCGCTAGCTCA): 0.0271
ACACGTCCATGGACCGGTTTTCCCGGTAATCCGTATTTGAT (site ACACGTCCTAT): 1.56

May I ask what recombinant UMI read abundance (log10) has been recorded for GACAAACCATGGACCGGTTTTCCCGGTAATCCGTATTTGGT (site GACAACCCTAC) ?
0

Follow-up item: GATCATCCATGGACCGGTTTTCCCGGTAATCCGTATTTGCT (site GATTATCCTAG)
0

Follow-up item: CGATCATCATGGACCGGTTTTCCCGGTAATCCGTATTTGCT (site GGTTCATCTAG)
0

Follow-up item: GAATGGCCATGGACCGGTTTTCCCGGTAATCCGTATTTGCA (site GAATGGCCTTG)
0

Follow-up item: ATCTAGACATGGACCGGTTTTCCCGGTAATCCGTATTTGGG (site ATCTAGACTCC)
0.0102

###

experiment: recombinant UMI read abundance after kanamycin selection (control-corrected) (log10(CPM+1)); higher = more efficient recombination; extreme values may be limits of the assay; sequences stand for … in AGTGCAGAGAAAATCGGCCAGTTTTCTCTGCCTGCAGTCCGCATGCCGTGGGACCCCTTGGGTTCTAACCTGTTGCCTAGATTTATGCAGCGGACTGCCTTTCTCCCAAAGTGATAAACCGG…AGGTTGGTTTCACT; site = the 11-nt donor
Assay Metric: recombinant UMI read abundance (log10)
// no unit, no text: just the number

TCCTCCGCATGGACCGGTTTTCCCGGTAATCCGTATTTGCG (site TCCTCCGCTCG): 0.0201
GTTGGGGCATGGACCGGTTTTCCCGGTAATCCGTATTTGCG (site GTTGGGGCTCG): 2.05
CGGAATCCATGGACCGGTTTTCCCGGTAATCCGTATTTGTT (site CGTAATACTAA): 0.00407
ACACGCACATGGACCGGTTTTCCCGGTAATCCGTATTTGTC (site ACACGGACTGA): 0

Now look at this one.
May I ask what recombinant UMI read abundance (log10) has been recorded for CTAATTTCATGGACCGGTTTTCCCGGTAATCCGTATTTGCC (site CTAATTTCTGG) ?
1.14
